Each record here notes measured Kd.
# tested target: T1, recombinant human IL-27 (human, UniProt Q14213 21-229; Q8NEV9 29-243)
# T1 construct: Bought from R&D Systems (Cat. 2526-IL); also called hIL-27; rhIL-27
# T1 sequence 1: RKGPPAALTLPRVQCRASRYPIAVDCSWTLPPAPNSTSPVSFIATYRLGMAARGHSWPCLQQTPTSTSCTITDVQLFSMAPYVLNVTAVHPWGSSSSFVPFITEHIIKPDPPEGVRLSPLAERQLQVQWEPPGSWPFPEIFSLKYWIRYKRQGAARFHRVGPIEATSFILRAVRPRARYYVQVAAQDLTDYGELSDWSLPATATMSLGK
# T1 sequence 2: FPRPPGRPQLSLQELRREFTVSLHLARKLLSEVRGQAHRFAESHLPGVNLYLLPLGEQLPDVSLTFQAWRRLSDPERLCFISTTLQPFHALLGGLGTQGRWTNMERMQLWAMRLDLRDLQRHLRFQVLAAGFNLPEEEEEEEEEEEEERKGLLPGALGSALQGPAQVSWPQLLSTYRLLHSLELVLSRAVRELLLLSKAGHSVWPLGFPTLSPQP
# experiment notes: SPR (Biacore T200), hIL-27 on CM5 chip, single cycle, 1:1 model

Before answering, review these 5 worked examples.
Ab7.12 (antibody, human IgG1, kappa, V domains shown, human IgG1/kappa) VH: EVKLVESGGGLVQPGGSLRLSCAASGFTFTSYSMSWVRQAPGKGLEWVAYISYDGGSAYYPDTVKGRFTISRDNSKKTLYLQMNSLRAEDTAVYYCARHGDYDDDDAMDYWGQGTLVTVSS VL: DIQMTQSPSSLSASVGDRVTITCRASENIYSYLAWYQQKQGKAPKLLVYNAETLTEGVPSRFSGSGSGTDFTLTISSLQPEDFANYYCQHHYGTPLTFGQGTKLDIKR ... 1.2 nM
Ab7.13 (antibody, human IgG1, kappa, V domains shown, human IgG1/kappa) VH: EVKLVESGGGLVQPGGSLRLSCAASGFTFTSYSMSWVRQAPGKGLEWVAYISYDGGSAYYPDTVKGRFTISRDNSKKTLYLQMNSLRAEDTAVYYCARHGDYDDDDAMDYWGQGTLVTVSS VL: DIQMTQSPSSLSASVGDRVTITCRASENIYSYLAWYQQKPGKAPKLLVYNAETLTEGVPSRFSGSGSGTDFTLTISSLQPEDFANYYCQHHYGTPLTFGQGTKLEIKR ... 1.2 nM
Ab7.5 (antibody, human IgG1, kappa, V domains shown, human IgG1/kappa) VH: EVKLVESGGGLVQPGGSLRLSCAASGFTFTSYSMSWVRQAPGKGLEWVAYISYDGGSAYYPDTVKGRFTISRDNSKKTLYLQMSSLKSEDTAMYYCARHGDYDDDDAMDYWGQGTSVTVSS VL: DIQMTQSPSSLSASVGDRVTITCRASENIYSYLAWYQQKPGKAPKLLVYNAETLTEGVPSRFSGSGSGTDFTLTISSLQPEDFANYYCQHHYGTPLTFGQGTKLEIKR ... 1.2 nM
Ab7.16 (antibody, human IgG1, kappa, V domains shown, human IgG1/kappa) VH: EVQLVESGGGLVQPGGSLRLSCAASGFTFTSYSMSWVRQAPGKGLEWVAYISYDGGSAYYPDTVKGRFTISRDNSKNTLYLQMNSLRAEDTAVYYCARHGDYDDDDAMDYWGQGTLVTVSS VL: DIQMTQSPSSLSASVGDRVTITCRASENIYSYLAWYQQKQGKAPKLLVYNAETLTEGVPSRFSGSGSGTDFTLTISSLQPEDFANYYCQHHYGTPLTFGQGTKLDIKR ... 1.5 nM
Ab7.10 (antibody, human IgG1, kappa, V domains shown, human IgG1/kappa) VH: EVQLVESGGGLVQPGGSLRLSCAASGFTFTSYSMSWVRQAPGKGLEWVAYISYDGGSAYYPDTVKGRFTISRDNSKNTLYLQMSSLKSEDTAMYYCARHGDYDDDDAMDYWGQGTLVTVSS VL: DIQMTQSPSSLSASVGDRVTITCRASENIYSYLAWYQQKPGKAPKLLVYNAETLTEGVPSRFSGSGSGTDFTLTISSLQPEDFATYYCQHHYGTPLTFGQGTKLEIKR ... 1.4 nM

Query block: Reported Kd, binder Ab7.17 (antibody, human IgG1, kappa, V domains shown, human IgG1/kappa) VH: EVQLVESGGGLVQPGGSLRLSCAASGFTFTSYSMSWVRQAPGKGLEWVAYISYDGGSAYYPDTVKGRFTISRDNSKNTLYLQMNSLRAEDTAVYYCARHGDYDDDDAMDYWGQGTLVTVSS VL: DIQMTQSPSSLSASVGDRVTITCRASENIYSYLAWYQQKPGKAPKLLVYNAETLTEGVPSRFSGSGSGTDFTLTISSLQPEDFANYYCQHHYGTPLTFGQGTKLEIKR : ____
Result block: 1.5 nM

Query block: Entry under review: Ab7.20 (antibody, human IgG1, kappa, V domains shown, human IgG1/kappa) VH: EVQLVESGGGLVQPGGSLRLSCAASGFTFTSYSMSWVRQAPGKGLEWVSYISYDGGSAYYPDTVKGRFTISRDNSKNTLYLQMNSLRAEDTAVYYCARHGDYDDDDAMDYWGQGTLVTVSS VL: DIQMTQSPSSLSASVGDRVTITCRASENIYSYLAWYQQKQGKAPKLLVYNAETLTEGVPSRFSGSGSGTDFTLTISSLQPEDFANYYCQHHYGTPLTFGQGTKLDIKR . Reported Kd?
Result block: 1.4 nM

Query block: Entry Ab7.9 (antibody, human IgG1, kappa, V domains shown, human IgG1/kappa) VH: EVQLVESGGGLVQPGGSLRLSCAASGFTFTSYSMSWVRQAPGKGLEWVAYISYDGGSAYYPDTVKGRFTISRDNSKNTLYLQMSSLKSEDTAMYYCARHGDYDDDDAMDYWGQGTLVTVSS VL: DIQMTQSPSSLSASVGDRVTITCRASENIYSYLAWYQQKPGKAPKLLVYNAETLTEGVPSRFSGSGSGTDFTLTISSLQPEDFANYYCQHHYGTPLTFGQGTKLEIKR has what Kd?
Result block: 1.5 nM

Query block: Recorded Kd for Ab7.22 (antibody, human IgG1, kappa, V domains shown, human IgG1/kappa) VH: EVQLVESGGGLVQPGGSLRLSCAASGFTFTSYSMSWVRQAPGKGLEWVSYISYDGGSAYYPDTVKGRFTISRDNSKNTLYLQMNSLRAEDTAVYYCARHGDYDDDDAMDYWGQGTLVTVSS VL: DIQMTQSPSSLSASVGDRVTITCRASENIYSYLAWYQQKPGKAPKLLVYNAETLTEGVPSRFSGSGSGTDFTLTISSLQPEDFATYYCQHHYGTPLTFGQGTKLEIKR , please?
Result block: 1.5 nM

Query block: Which Kd value is on record for Ab7.8 (antibody, human IgG1, kappa, V domains shown, human IgG1/kappa) VH: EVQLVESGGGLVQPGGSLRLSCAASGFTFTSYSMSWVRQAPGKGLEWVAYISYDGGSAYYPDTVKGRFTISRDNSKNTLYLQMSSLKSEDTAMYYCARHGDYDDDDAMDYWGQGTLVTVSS VL: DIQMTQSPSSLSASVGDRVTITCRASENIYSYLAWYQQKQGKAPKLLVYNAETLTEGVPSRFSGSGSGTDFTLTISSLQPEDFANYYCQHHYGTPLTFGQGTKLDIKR ?
Result block: 1.5 nM

Where these numbers come from: patent US20190382474A1
